System: Serratia marcescens expressing IMP-1 (CL5741)
Type: cell-based
Details: with imipenem 1 μg/ml; 95% inhibition of bacterial growth
Procedure: The bacterial strains tested included the clinical strains Escherichia coil expressing NDM-1 (CLB30005, CLB30016), Serratia marcescens expressing IMP-1 (CL5741), and Klebsiella pneumoniae expressing VIM-1 (H-LMA599644). Inhibitor activity was measured in the presence and absence of imipenem in a 384-well microplate. The clinical strains CLB30016, CL5741 and IHMA599644 were grown on trypticase soy agar containing 5% sheep's blood. […]
Quick reference for CL5741 S. marcescens MITC95 IMP among some compounds
observation type: CL5741 S. marcescens MITC95 IMP (µM)

[[record]]
compound = "CN1CCN(c2ccc(S(=O)(=O)N[C@@H]3CCNC3)c(S(N)(=O)=O)c2-c2nnn[nH]2)CC1=O [Example 65]"
endpoint_value = 3.13

[[record]]
compound = "NS(=O)(=O)c1c(S(=O)(=O)N[C@@H]2CCNC2)ccc(N2CCCC(O)C2=O)c1-c1nn[nH]n1 (stereo partly shown) [Example 148]"
endpoint_value = 1.56

[[record]]
compound = "NS(=O)(=O)c1c(S(=O)(=O)N[C@@H]2CCNC2)ccc(N2CC(N3CCOCC3)C2)c1-c1nnn[nH]1 [Example 111]"
endpoint_value = 1.56

[[record]]
compound = "C[C@H](CN)NS(=O)(=O)c1ccc(N2CC[C@@H](N)[C@@H](F)C2)c(-c2nn[nH]n2)c1S(N)(=O)=O (racemic) [Example 5]"
endpoint_value = 0.20

